Test system: human glioma (GLO7)
procedure.summary: Antitumor effect of the compounds against human glioma (GLO7), nude mice xenograft
Type: in vivo
run.parameters: Mus musculus, po, 216 h; nude mice, 50 mg/kg orally once a day, 9 days; read-out: Tumor growth inhibition rate (TGIR)
Below is a list of entries, each paired with its recorded inhibition in vivo at 50 mg/kg value.
The figure you give is taken to be in %; do not add the unit.

[[record]]
input_smiles = "COc1cc2nccc(Oc3ccc(NC(=O)Nc4ccccc4[N+](=O)[O-])cc3)c2cc1OC"
recorded_metric = "inhibition in vivo at 50 mg/kg"
result_value = 56

[[record]]
input_smiles = "CCCNC(=O)Nc1ccc(Oc2ccnc3cc(OC)c(OC)cc23)cc1"
recorded_metric = "inhibition in vivo at 50 mg/kg"
result_value = 59

[[record]]
input_smiles = "COc1cc2nccc(Oc3ccc(NC(=O)Nc4ccc(C(F)(F)F)cc4)cc3)c2cc1OC"
recorded_metric = "inhibition in vivo at 50 mg/kg"
result_value = 86

[[record]]
input_smiles = "COc1cc2nccc(Oc3ccc(NC(=O)Nc4cc(C(F)(F)F)ccc4C(F)(F)F)cc3)c2cc1OC"
recorded_metric = "inhibition in vivo at 50 mg/kg"
result_value = 63

[[record]]
input_smiles = "COc1cc2nccc(Oc3ccc(NC(=O)Nc4ccc(Cl)cc4C)cc3)c2cc1OC"
recorded_metric = "inhibition in vivo at 50 mg/kg"
result_value = 62


In: Read the entry "COc1ccccc1NC(=O)Nc1ccc(Oc2ccnc3cc(OC)c(OC)cc23)cc1" and write its reported inhibition in vivo at 50 mg/kg.
Out: 64

In: Supply measured inhibition in vivo at 50 mg/kg of "COc1ccc(Cl)cc1NC(=O)Nc1ccc(Oc2ccnc3cc(OC)c(OC)cc23)cc1" in your reply.
Out: 78

In: For the molecule "COc1cc2nccc(Oc3ccc(NC(=O)Nc4cc(F)c(F)cc4F)cc3)c2cc1OC" , report inhibition in vivo at 50 mg/kg.
Out: 86

---

tested.on: PDGF receptor (Rattus norvegicus, UniProt Q05030)
Construct: cultured rat mesangial cells which are known to have the PDGF receptor; endogenous in cells; host or cells: primary mesangial cells cultured from glomeruli of Wistar-Kyoto rats (Charles River Japan), more than 5 passages
Sequence (Q05030 32-1097): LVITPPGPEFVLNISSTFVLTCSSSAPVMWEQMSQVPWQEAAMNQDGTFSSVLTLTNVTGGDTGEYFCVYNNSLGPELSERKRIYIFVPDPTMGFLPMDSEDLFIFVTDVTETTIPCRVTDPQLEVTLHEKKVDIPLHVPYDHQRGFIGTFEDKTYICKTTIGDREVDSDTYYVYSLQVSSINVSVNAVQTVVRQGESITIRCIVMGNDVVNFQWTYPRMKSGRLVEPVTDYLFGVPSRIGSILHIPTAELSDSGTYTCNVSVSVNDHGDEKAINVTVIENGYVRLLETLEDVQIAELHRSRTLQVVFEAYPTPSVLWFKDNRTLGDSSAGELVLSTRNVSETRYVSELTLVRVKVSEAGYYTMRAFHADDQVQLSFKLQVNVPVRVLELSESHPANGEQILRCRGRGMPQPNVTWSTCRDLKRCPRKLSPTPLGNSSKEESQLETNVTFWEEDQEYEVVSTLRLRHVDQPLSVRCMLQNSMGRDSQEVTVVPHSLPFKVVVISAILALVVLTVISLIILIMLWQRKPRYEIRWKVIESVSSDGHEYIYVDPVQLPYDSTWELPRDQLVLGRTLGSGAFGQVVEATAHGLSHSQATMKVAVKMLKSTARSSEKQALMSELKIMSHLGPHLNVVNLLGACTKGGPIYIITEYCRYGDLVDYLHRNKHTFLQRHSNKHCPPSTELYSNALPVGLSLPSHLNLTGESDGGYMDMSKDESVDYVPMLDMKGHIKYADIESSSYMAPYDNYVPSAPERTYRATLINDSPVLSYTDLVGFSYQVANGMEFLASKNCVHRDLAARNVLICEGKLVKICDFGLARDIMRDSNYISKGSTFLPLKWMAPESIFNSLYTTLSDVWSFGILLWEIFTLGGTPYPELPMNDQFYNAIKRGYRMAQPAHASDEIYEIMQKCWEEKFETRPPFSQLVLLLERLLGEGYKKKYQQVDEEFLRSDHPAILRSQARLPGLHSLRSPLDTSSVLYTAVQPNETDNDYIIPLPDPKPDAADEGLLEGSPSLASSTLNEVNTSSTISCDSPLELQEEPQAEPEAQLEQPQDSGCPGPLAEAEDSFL
procedure.summary: PDGF receptor autophosphorylation inhibition in cultured rat mesangial cells
Assay type: cell-based
run.parameters: PDGF-BB 50 ng/ml
In this section we review reported IC50 values for a set of compounds.
Reply numerically in nM, unit not repeated.

A selection of reference data follows.
[[record]]
input_smiles = "COc1cc2nccc(Oc3ccc(NC(=O)Nc4c(Cl)cccc4Cl)cc3)c2cc1OC"
recorded_metric = "IC50"
result_value = 34

[[record]]
input_smiles = "COc1cc2nccc(Oc3ccc(NC(=O)Nc4cc(F)ccc4F)cc3)c2cc1OC"
recorded_metric = "IC50"
result_value = 5

[[record]]
input_smiles = "COc1cc2nccc(Oc3ccc(C(=O)c4ccc(C(C)(C)C)cc4)cc3)c2cc1OC"
recorded_metric = "IC50"
result_value = 300


In: Identify IC50 associated with the compound "COc1cc2nccc(Oc3ccc4[nH]ccc4c3)c2cc1OC"
Out: 50

In: Please report the measured IC50 for "COc1cc(OC)c(NC(=O)Nc2ccc(Oc3ccnc4cc(OC)c(OC)cc34)cc2)cc1Cl"
Out: 18

In: Provide one value: measured IC50 of "COc1cc2nccc(Oc3ccc(NC(=O)Nc4cccc(OC)c4OC)cc3)c2cc1OC"
Out: 7

In: # return recorded IC50 for entry "COc1cc2nccc(Oc3ccc(NC(=O)Nc4c(F)cc(F)cc4F)cc3)c2cc1OC"
Out: 4

In: Tell me measured IC50 for "COc1cc2nccc(Oc3ccc(NC(=O)Nc4cccc(N)c4)cc3)c2cc1OC" please.
Out: 10

In: Give reported IC50 value for "COc1cc2nccc(Oc3ccc(NC(=O)Nc4ccccc4C)cc3)c2cc1OC"
Out: 4

In: Please indicate IC50 recorded for "COc1cc2nccc(Oc3ccc(NC(=O)Nc4ccc(C)cc4)cc3)c2cc1OC"
Out: 3

In: Return the recorded IC50 value; entry: "COc1cc2nccc(Oc3ccc(NC(=O)Nc4cc(F)c(F)cc4F)cc3)c2cc1OC"
Out: 15

In: Return reported IC50. Input compound: "COc1cc2nccc(Oc3ccc(NC(=O)NCc4cccnc4)cc3)c2cc1OC"
Out: 41

In: Return value of IC50 for input "CCCCCCNC(=O)Nc1ccc(Oc2ccnc3cc(OC)c(OC)cc23)cc1" , no commentary.
Out: 31

In: Please report the measured IC50 for "COc1ccc(NC(=O)Nc2ccc(Oc3ccnc4cc(OC)c(OC)cc34)cc2)cc1OC"
Out: 11

In: Report IC50, nothing else, for this compound: "COc1cc2nccc(Oc3ccc(NC(=O)Nc4ccc(OC(C)=O)cc4)cc3)c2cc1OC"
Out: 6

In: Return value of IC50 for input "CCCCc1ccc(C(=O)Nc2ccc(Oc3ccnc4cc(OC)c(OC)cc34)cc2)cc1" , no commentary.
Out: 50

In: Name the recorded IC50 of the item "COc1cc2nccc(Oc3ccc(NC(=O)Nc4ccc(Cl)c(N)c4)cc3)c2cc1OC" in your answer.
Out: 9

Value source: patent US6143764A
